REPORTED_CONDITIONS: in toluene, 323.13 K

[
  {
    "CHEMICAL_STRUCTURE": "O=P(c1ccccc1)(c1ccccc1)c1ccccc1",
    "solubility (mole fraction)": 0.0768
  }
]

----------
REPORTED_CONDITIONS: in ethyl acetate, 308.27 K

[
  {
    "CHEMICAL_STRUCTURE": "O=P(c1ccccc1)(c1ccccc1)c1ccccc1",
    "solubility (mole fraction)": 0.0348
  }
]

----------
REPORTED_CONDITIONS: in ethyl acetate, 294.54 K

[
  {
    "CHEMICAL_STRUCTURE": "O=P(c1ccccc1)(c1ccccc1)c1ccccc1",
    "solubility (mole fraction)": 0.023
  }
]

----------
REPORTED_CONDITIONS: in toluene, 333.77 K

[
  {
    "CHEMICAL_STRUCTURE": "O=P(c1ccccc1)(c1ccccc1)c1ccccc1",
    "solubility (mole fraction)": 0.0998
  }
]

----------
REPORTED_CONDITIONS: in benzene, 323.34 K

[
  {
    "CHEMICAL_STRUCTURE": "O=P(c1ccccc1)(c1ccccc1)c1ccccc1",
    "solubility (mole fraction)": 0.123
  }
]

----------
REPORTED_CONDITIONS: in toluene, 313.53 K

[
  {
    "CHEMICAL_STRUCTURE": "O=P(c1ccccc1)(c1ccccc1)c1ccccc1",
    "solubility (mole fraction)": 0.0548
  }
]

----------
REPORTED_CONDITIONS: in benzene, 293.78 K

[
  {
    "CHEMICAL_STRUCTURE": "O=P(c1ccccc1)(c1ccccc1)c1ccccc1",
    "solubility (mole fraction)": 0.055
  }
]

----------
REPORTED_CONDITIONS: in ethyl acetate, 318.32 K

[
  {
    "CHEMICAL_STRUCTURE": "O=P(c1ccccc1)(c1ccccc1)c1ccccc1",
    "solubility (mole fraction)": 0.0496
  }
]

----------
REPORTED_CONDITIONS: in ethyl acetate, 328.65 K

[
  {
    "CHEMICAL_STRUCTURE": "O=P(c1ccccc1)(c1ccccc1)c1ccccc1",
    "solubility (mole fraction)": 0.0659
  }
]

----------
REPORTED_CONDITIONS: in benzene, 333.45 K
EXPERIMENTAL_ENDPOINT: solubility (mole fraction)

[
  {
    "CHEMICAL_STRUCTURE": "O=P(c1ccccc1)(c1ccccc1)c1ccccc1",
    "RESULT_VALUE": 0.152
  }
]

----------
REPORTED_CONDITIONS: in ethyl acetate, 323.21 K

[
  {
    "CHEMICAL_STRUCTURE": "O=P(c1ccccc1)(c1ccccc1)c1ccccc1",
    "solubility (mole fraction)": 0.0555
  }
]

----------
REPORTED_CONDITIONS: in ethyl acetate, 303.3 K

[
  {
    "CHEMICAL_STRUCTURE": "O=P(c1ccccc1)(c1ccccc1)c1ccccc1",
    "solubility (mole fraction)": 0.0305
  }
]
